The reported numbers originate from PubChem BioAssay.

Below, each of the compounds is paired with its reported composite z-score value.
- Tested on: Sam68 (KHDRBS1)
- Assay Overview: compounds binding KHDRBS1 protein – biochemical, small-molecule microarray, 635 nm fluorescence, primary screen (AID 1125);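 also: score merges 667 nm channel intensity with signal to noise over triplicate slides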
- Experimental Context: higher = more signal
Respond with the number and no other words.

Worked examples follow.
CCOC(=O)C[C@H]1[C@H](OC(=O)c2ccccc2-c2ccccc2)[C@@H](NC(=O)c2ccc3ccccc3n2)c2cc(OCCCO)ccc2N1C(=O)Cc1ccc(OC)cc1 = 0.368
CCOC(=O)C[C@H]1[C@H](OC(=O)c2ccc(C(=O)c3ccccc3)cc2)[C@@H](NC(=O)CC(C)C)c2cc(OCCCO)ccc2N1C(=O)c1ccccc1 = 1.3
CC(C)(C)OC(=O)COc1cccc(C(=O)CCN2CCOCC2)c1 = 0.656

### Prompt If you can, please state the reported composite z-score value of O=C1C2C=CC(C(O)c3ccco3)N(Nc3ccccc3F)C2C(=O)N1c1ccccc1 (centres undefined) .
### Response 0.309

### Prompt If you can, please state the reported composite z-score value of CC(=O)N1CC2(CC2)CC1c1ccccc1 (centres undefined) .
### Response 0.913

### Prompt If you can, please state the reported composite z-score value of COC(=O)[C@@]1(Cc2ccc(F)cc2)[C@H]2c3cc(C(=O)N4CCCC4)n(Cc4ccc(C)c(F)c4F)c3C[C@H]2CN1C(=O)c1ccccc1 .
### Response -0.451

### Prompt If you can, please state the reported composite z-score value of O=C1C[C@]2(c3ccc([N+](=O)[O-])cc3)C(=O)N(C3CC3)c3cc(CO)ccc3[C@H]2N1CC12CC3CC(CC(C3)C1)C2 .
### Response -0.183

### Prompt If you can, please state the reported composite z-score value of CN1C2C=C(CCCO)C(C3C(=O)N(C(N)=O)C(=O)C32)C1C1CC1 (centres undefined) .
### Response 0.0346

### Prompt If you can, please state the reported composite z-score value of COc1ccc(CCNC(=O)[C@@]2(Sc3ccc(C)cc3)CC(=O)N(Cc3ccccc3C(F)(F)F)[C@@H]2c2ccc(CO)cc2I)cc1 .
### Response -0.3

----------
- Test System: Alpha-bungarotoxin (Bungarus multicinctus) (UniProt P60615)
- Sequence (P60615 whole entry, looked up): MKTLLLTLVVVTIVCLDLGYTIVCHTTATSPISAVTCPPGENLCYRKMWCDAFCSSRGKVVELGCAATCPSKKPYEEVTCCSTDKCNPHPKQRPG
- Assay Overview: compounds binding labelled alpha-BTX control protein – biochemical, small-molecule microarray, Alexa647 label, 635/667 nm fluorescence, artefact control for SMM control protein annotation, profiling panel (AID 1117)
- Experimental Context: alpha-BTX-A647 binding fluorescence, higher = more signal
Measured Parameter: composite z-score
Respond with the number and no other words.

CCCCCN1CC=CC23O[C@@H]4/C=C\CCCOC(=O)C4[C@H]2C(=O)N(C(C)CO)[C@@H]3C1=O (stereo partly specified) = 2.97

### Prompt If you can, please state the reported composite z-score value of COCC(=C=CC[C@H](O)c1ccc(CO)o1)CCO .
### Response 0.818

----------
- Assay Overview: probe aXIP binding to arrayed compounds – biochemical, NeuroSMM set, 635/667 nm fluorescence, primary screen (AID 1119);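 also: probe is the protein aXip251-270 applied at 1 µg/mL to compound-printed slides; binding of probe to printed compounds measured as 667 nm fluorescence plus signal to noise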
- Experimental Context: small-molecule microarray, higher = more signal, called active from +8 up or from −8 down
Measured Parameter: composite Z-score
Respond with the number and no other words.

Worked examples follow.
CO[C@H]1O[C@H](CO)[C@@H](OC(=O)Nc2ccc3c(c2)OCO3)[C@H](OC(=O)Nc2ccc3c(c2)OCO3)[C@@H]1OC(=O)Nc1ccc2c(c1)OCO2 = 0.871
O=C1OCCC=C[C@H]2OC34C=CCN(Cn5nnc6ccccc65)C(=O)[C@H]3N(CCCO)C(=O)[C@@H]4C12 (some centres undefined) = -0.0287
CC(CO)N1C(=O)[C@]2(C)C3C(=O)OCCC/C=C\[C@H]3OC23C=CCN(c2ccc(Cl)cc2)C(=O)[C@@H]13 (some centres undefined) = -0.462

Okay, next one:
### Prompt If you can, please state the reported composite Z-score value of COC(=O)[C@@H]1N=C(c2ccc(OCCCO)cc2)O[C@@H]1c1ccccc1 .
### Response 0.536

----------
- Test system: Neuregulin-1 EGF-like domain
- Assay Overview: small molecules binding NRG1 EGF domain – biochemical, small-molecule microarray, 635 nm fluorescence, primary screen (AID 1081);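 also: binding of the protein to compounds printed on small-molecule microarray slides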
- Experimental Context: higher = more signal
Returns one of Satisfied or Not satisfied; Satisfied when composite z-score is >= 1.

Check out these entries, answers already filled in.
NCCCCCNC(=O)[C@@H]1C[C@@H]2C(=O)N[C@@H](CCCCN)C(=O)N2[C@@H]1c1ccc(O)cc1 = Satisfied
COc1cccc(C)c1NC(=O)O[C@H]1[C@H](OC(=O)Nc2ccc3c(c2)OCO3)[C@@H](OC(=O)Nc2ccc3c(c2)OCO3)[C@@H](OC)O[C@@H]1CO = Satisfied
[N-]=[N+]=Nc1ccccc1[C@H]1OC(c2ccc(OCCCO)cc2)=N[C@@]1(Cc1ccccc1)C(=O)NCCN1CCOCC1 = Satisfied
Cc1ccc(S[C@]2(C(=O)NCC(F)(F)F)CC(=O)N(Cc3cc(C(F)(F)F)cc(C(F)(F)F)c3)[C@@H]2c2ccc(CO)cc2)cc1 = Not satisfied
CC(C)C(CO)N1C(=O)[C@@H]2C3C(=O)OCCC/C=C\[C@H]3OC23C=CCN(Cn2nnc4ccccc42)C(=O)[C@@H]13 (some centres not stated) = Not satisfied

# evaluate next
### Prompt Check this compound for composite z-score at or above 1: COCCOC(=O)N1C(=O)[C@@]2(c3cc(C#CCNC(N)=O)ccc31)[C@H](C(N)=O)[C@H]1C(=O)O[C@H](c3ccccc3)[C@H](c3ccccc3)N1[C@@H]2c1ccccc1OCCO
### Response Not satisfied

----------
- Test System: Calmodulin-1 (Homo sapiens)
- Assay Overview: small molecules binding Ca-loaded calmodulin-1 – biochemical, small-molecule microarray, Cy5-labelled CALM1, plus calcium, artefact control for SMM control-protein annotation, profiling panel (AID 1112);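 also: score merges spot fluorescence with signal to noise from triplicate slides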
- Experimental Context: Cy5-CALM1 binding fluorescence, higher = more signal
Measured Parameter: composite z-score
Respond with the number and no other words.

COC(=O)[C@@]1(Cc2ccc(OC)cc2)[C@H]2c3cc(C(=O)N(C)C)n(Cc4ccc(C)o4)c3C[C@H]2CN1C(=O)c1ccccc1 = -0.223
CCOC(=O)C[C@H]1[C@H](OC(=O)c2ccc(-c3ccccc3)cc2)[C@@H](NC(=O)CC(C)C)c2cc(OCCCO)ccc2N1C(=O)c1ccc2ccccc2n1 = -0.631
CCCCN1CC=CC23O[C@@H]4/C=C\CCCOC(=O)C4[C@H]2C(=O)N(CCO)[C@@H]3C1=O (some centres not stated) = 0.278
COCC(=C=CC[C@H](O)c1ccc(OCCO)cc1)CCO = -0.618
COC(=O)[C@@]1(Cc2ccc(OC)cc2)[C@H]2c3cc(C(=O)N4CCCC4)n(CCc4c[nH]c5ccc(OC)cc45)c3C[C@H]2CN1C(=O)c1ccccc1 = 1.46

### Prompt If you can, please state the reported composite z-score value of CCCCC(CC)C(O)C1C=CC2C(=O)N(C)C(=O)C2N1Nc1ccccc1 (configuration not stated) .
### Response 0.583

### Prompt If you can, please state the reported composite z-score value of NCCCCCNC(=O)[C@H]1C[C@H]2C(=O)N3CCC[C@H]3C(=O)N2[C@H]1c1cccc(OCCO)c1 .
### Response 0.684

### Prompt If you can, please state the reported composite z-score value of C#CCN(Cc1ccccc1Br)[C@H](/C=C/c1ccccc1)[C@@H](O)Cc1ccccc1 .
### Response 0.41

----------
Below, each of the molecules is paired with its reported composite z-score value.
- Assay Overview: probe aInhba binding on compound microarray – biochemical, small-molecule microarray, 635/667 nm fluorescence, primary screen (AID 1148);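 also: score merges 667nm spot fluorescence with signal-to-noise for antibody binding to printed compounds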
- Experimental Context: higher = more signal
Respond with the number and no other words.

Worked examples follow.
NC(=O)[C@@]1(Cc2ccccc2)COC(c2ccc(OCCCO)cc2)=N1 = 0.105
[N-]=[N+]=NCc1ccccc1C[C@@]1(C(N)=O)N=C(c2ccc(OCCCO)cc2)O[C@@H]1c1ccccc1 = 0.144
C=CCNC(=O)[C@H]1[C@@H]2C(=O)O[C@@H](c3ccccc3)[C@@H](c3ccccc3)N2[C@@H](c2ccccc2OCCO)[C@]12C(=O)N(C(=O)OCCOC)c1ccc(C#CC3(O)CCCCCC3)cc12 = 0.0566
C=CCOC(=O)[C@@H]1[C@H]2C(=O)O[C@H](c3ccccc3)[C@H](c3ccccc3)N2[C@H](c2ccc(OCCOC(=O)[C@@H]3C[C@@H]4C(=O)N[C@@H](CCCC[N+](C)(C)C)C(=O)N4[C@@H]3c3ccc(O)cc3)cc2)[C@@]12C(=O)Nc1ccc(I)cc12 = 0.0665
COC(=O)[C@@]1(Cc2ccc(F)cc2)[C@H]2c3cc(C(=O)N4CCCC4)n(Cc4ccc(C)c(F)c4F)c3C[C@H]2CN1C(=O)c1ccccc1 = 0.12

### Prompt If you can, please state the reported composite z-score value of COc1ccc([Si](C)(C)[C@@H]2[C@@H](CCO)O[C@]3(C(=O)N(Cc4ccccc4)c4ccc(N5CCOC5=O)cc43)[C@H]2C)cc1 .
### Response -0.016

### Prompt If you can, please state the reported composite z-score value of O=C1C2C=CC(C(O)c3cccc(O)c3)N(Nc3ccc([N+](=O)[O-])cc3)C2C(=O)N1c1ccccc1 (centres undefined) .
### Response 0.0649

### Prompt If you can, please state the reported composite z-score value of Cc1ccc(S[C@]2(C(=O)O)CC(=O)N(C3CCCCC3)[C@@H]2c2ccc(CO)cc2I)cc1 .
### Response 0.239

### Prompt If you can, please state the reported composite z-score value of CC(C)c1ccc(NN2C(C(O)c3ccc(C#N)cc3)C=CC3C(=O)N(c4ccccc4)C(=O)C32)cc1 (centres undefined) .
### Response 0.41

### Prompt If you can, please state the reported composite z-score value of CCCCCN1CC=CC23O[C@@H]4/C=C\CCCOC(=O)C4[C@H]2C(=O)N(C(C)CO)[C@@H]3C1=O (some centres undefined) .
### Response -0.128
